Entry source: patent US20250276075A1

Quick list: Affinity ELISA CPE mutant ratio (1:9, pH 6.0/7.4) per entry.
system under test: T1, Axl (Homo sapiens, UniProt P30530)
T1 sequence (P30530 26-451 limits assumed): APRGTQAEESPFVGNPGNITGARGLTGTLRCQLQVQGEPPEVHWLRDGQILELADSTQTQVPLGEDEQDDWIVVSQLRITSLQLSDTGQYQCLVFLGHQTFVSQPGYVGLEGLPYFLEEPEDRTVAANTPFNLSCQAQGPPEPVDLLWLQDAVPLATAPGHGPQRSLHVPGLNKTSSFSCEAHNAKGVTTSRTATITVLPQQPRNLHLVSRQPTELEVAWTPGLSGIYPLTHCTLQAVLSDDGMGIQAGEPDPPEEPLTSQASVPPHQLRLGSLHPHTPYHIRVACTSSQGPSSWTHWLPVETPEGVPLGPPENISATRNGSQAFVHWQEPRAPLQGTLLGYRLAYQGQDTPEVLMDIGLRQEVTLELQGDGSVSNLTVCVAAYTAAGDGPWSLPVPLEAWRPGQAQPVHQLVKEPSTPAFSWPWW
assay notes: Affinity ELISA of CPE mutant antibodies for binding to Axl at pH 6.0 over pH 7.4
applied conditions: heavy chain variable region mutants; 1:9 dilution
Excerpt: The DNA encoding the wild-type antibody was evolved to generate a mutant antibody library using Comprehensive Positional Evolution (CPE), which each position in the template antibody is randomized one at a time. Each mutant antibody in the library has only one single point mutation. The mutant antibodies in the library were generated by simultaneously screening for selective binding affinity to Axl at pH 6.0 over pH 7.4 by ELISA. Two mutant antibody dilutions were used: 1:3 and 1:9 dilutions. […]
Form field (numeric): enter value without unit.

{"columns": ["molecule", "endpoint value"],
 "data": [
  ["HC-F105N (antibody, V domains shown) VH: EVQLVQSGAEVKKPGATVKISCKVSGYSFTGHTMNWIRQPPGKGLEWIGLIKPSNGGTSYNQKFKGRVTISADKSISTAYLQWSSLKASDTAMYYCAHGHYESYNAMDYWGQGTLVTVSS VL: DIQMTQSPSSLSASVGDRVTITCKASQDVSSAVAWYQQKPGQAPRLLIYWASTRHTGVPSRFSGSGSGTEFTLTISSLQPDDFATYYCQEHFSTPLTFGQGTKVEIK", 2.642],
  ["HC-W110H (antibody, V domains shown) VH: EVQLVQSGAEVKKPGATVKISCKVSGYSFTGHTMNWIRQPPGKGLEWIGLIKPSNGGTSYNQKFKGRVTISADKSISTAYLQWSSLKASDTAMYYCAHGHYESYFAMDYHGQGTLVTVSS VL: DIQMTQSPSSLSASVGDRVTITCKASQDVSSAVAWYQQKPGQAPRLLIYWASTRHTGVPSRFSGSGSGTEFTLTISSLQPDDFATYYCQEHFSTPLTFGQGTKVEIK", 0.932]
]}

Now consider a different molecule.
Q: Request the reported Affinity ELISA CPE mutant ratio (1:9, pH 6.0/7.4) associated with HC-M107F (antibody, V domains shown) VH: EVQLVQSGAEVKKPGATVKISCKVSGYSFTGHTMNWIRQPPGKGLEWIGLIKPSNGGTSYNQKFKGRVTISADKSISTAYLQWSSLKASDTAMYYCAHGHYESYFAFDYWGQGTLVTVSS VL: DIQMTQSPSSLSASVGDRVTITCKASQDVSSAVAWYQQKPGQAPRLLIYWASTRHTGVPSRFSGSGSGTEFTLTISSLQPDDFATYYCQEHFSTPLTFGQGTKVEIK
A: 1.090
